B1: NP_002788.1 (parent)
chain: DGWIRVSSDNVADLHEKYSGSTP

variants of: B1; assay: protein stability index of a GFP-peptide fusion (GPS, HEK-293T) (PSI 1-6); higher = more stable; conditions: c terminus: native;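 also: lentivirally expressed fusion library, cells FACS-sorted into six equal-sized GFP/DsRed ratio bins, PSI computed from sequencing read fractions per bin weighted by bin number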
endpoint: protein stability index

mutantCode | val
D1C | 2.23
N10L | 2.69
W3L | 5.26
S19V | 2.94
D13M | 2.53
D1N | 2.33
I4N | 4.94
W3Q | 5.42
G2L | 2.54
S19A | 2.26
V11E | 1.92
W3C | 5.49
V11P | 2.73
V11L | 2.21
D1T | 2.48
E16R | 2.97
S7M | 2.41
S19K | 1.95
G20Q | 3.43
L14G | 3.47
R5Y | 2.76
E16P | 3.32

Source of measurements: the supplement of paper PMC10567573
